# TARGET OR SYSTEM: Avi-KRAS WT (1-169) GppNHp/RAF1 RBD-3xFLAG (52-151) (Homo sapiens, UniProt P01116)
# Construct: Avi-KRAS WT (1-169)
# Sequence (P01116 1-169 isoform P01116-2): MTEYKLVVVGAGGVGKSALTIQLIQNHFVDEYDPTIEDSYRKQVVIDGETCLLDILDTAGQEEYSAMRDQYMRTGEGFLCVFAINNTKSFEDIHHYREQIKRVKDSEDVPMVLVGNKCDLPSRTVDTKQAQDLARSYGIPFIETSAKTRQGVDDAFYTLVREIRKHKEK
# ASSAY TEXT: Raf1-KRAS WT-GppNHP disruption HTRF assay (Biological Example 1)
# Format: binding
# EXPERIMENTAL CONDITIONS: KRAS WT-GppNHp/RAF1 RBD HTRF
# Procedure: A protein:protein interaction (PPI) Homogeneous Time Resolved Fluorescence (HTRF) assay was used to determine the effectiveness of compounds of the present disclosure in disrupting KRAS protein and effector RAF1 binding. The assay buffer included: 50 mM Tris pH 7.5, 100 mM NaCl, 5 mM MgCl2, 0.1% BSA, 0.01% Tween, and 10% DMSO. The bead buffer included: 50 mM Tris pH 7.5, and 0.01% Tween 20. […] Data was reported as percentage of activity, with DMSO as 100%. Data was plotted and analyzed using Prism 8.
pIC50: −log10 of the molar value.
Provide the reported pIC50 of each item.

Exercise: Which pIC50 is listed for CN(c1nc(OC[C@@]23CCCN2C[C@H](F)C3)nc2c(F)c(-c3ccc(F)c4sc(N)c(C#N)c34)c(C(F)(F)F)cc12)[C@@H]1CC[C@H](O)C1 [Compound 315] ?
Solution: 6.00 to 7.00

Exercise: Another molecule to look at: C[C@@H]1Cn2nc(C(=O)N(C)C)cc2CN1c1nc(OC[C@@]23CCCN2C[C@H](F)C3)nc2c(F)c(-c3ccc(F)c4sc(N)c(C#N)c34)c(C(F)(F)F)cc12 [Compound 510]
Solution: 5.00 to 6.00

Exercise: Could you do the same for C[C@@H]1[C@H](N(C)c2nc(OC[C@@]34CCCN3C[C@H](F)C4)nc3c(F)c(-c4ccc(F)c5sc(N)c(C#N)c45)c(C(F)(F)F)cc23)CCN1C(=O)C(C)(C)C [Compound 312] , please?
Solution: 6.00 to 7.00

Exercise: Another molecule: CCC(=O)N1CC[C@H](N(CC)c2nc(OC[C@@]34CCCN3C[C@H](F)C4)nc3c(F)c(-c4ccc(F)c5sc(N)c(C#N)c45)c(C(F)(F)F)cc23)C1 [Compound 349]
Solution: 6.00 to 7.00

Exercise: Now consider CN1C[C@H](N(C)c2nc(OC[C@@]34CCCN3C[C@H](F)C4)nc3c(F)c(-c4ccc(F)c5sc(N)c(C#N)c45)c(C(F)(F)F)cc23)CC1=O [Compound 285] and answer again.
Solution: 6.00 to 7.00

###

# TARGET OR SYSTEM: Avi-KRAS G12R (1-169) GppNHp/RAF1 RBD-3xFLAG (52-151) (Homo sapiens, UniProt P01116, G12R)
# Construct: Avi-KRAS G12R (1-169)
# Sequence (P01116 1-169 isoform P01116-2 G12R): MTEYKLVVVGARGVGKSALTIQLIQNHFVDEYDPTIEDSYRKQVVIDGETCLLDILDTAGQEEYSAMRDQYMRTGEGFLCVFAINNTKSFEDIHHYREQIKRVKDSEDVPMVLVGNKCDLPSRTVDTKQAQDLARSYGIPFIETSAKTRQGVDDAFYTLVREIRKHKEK
# ASSAY TEXT: Raf1-KRAS G12R-GppNHP disruption HTRF assay (Biological Example 1)
# Assay type: binding
# EXPERIMENTAL CONDITIONS: KRAS G12R, GppNHp-loaded; class symbols
OBSERVABLE: IC50

Exercise: Quick one: IC50 for CCN1CC[C@H](N(CC)c2nc(OC[C@@]34CCCN3C[C@H](F)C4)nc3c(F)c(-c4ccc(F)c5sc(N)c(C#N)c45)c(C(F)(F)F)cc23)C1=O (atropisomer, axis not shown) ?
Solution: 100 to 1000 nM

Exercise: Now this one: CCN(c1nc(OC[C@@]23CCCN2C[C@H](F)C3)nc2c(F)c(-c3ccc(F)c4sc(N)c(C#N)c34)c(C(F)(F)F)cc12)[C@H]1C[C@H](COC)N(C(=O)OC)C1 (atropisomer, axis not shown)
Solution: < 100 nM

Exercise: Okay, and CCN1C[C@@H](N(CC)c2nc(OC[C@@]34CCCN3C[C@H](F)C4)nc3c(F)c(-c4ccc(F)c5sc(N)c(C#N)c45)c(C(F)(F)F)cc23)CC1=O (atropisomer, axis not shown) ?
Solution: < 100 nM

Exercise: Moving on to the next molecule: CCN(c1nc(OCC23CCCN2CC(F)C3)nc2c(F)c(-c3ccc(F)c4sc(N)c(C#N)c34)c(C(F)(F)F)cc12)C1CCN(C(=O)c2ncon2)C1 (centres unmarked)
Solution: < 100 nM

Exercise: Would you mind doing CC#CC(=O)N1CC[C@H](N(CC)c2nc(OC[C@@]34CCCN3C[C@H](F)C4)nc3c(F)c(-c4ccc(F)c5sc(N)c(C#N)c45)c(C(F)(F)F)cc23)C1 (atropisomer, axis not shown) as well?
Solution: < 100 nM

###

# TARGET OR SYSTEM: Avi-KRAS G12D (1-169) GppNHp/RAF1 RBD-3xFLAG (52-151) (Homo sapiens, UniProt P01116, G12D)
# Construct: Avi-KRAS G12D (1-169)
# Sequence (P01116 1-169 isoform P01116-2 G12D): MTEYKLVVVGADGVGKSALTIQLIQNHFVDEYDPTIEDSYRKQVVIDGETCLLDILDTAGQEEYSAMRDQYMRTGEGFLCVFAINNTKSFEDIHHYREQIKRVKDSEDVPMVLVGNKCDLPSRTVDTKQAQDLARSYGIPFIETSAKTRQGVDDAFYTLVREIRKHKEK
# ASSAY TEXT: Raf1-KRAS G12D-GppNHP disruption HTRF assay (Biological Example 1)
# Assay type: binding
# EXPERIMENTAL CONDITIONS: KRAS G12D-GppNHp/RAF1 RBD HTRF
pIC50: −log10 of the molar value.
Can you tell me pIC50 for the items I'm about to list?

Exercise: Given the molecule CCN(c1nc(OC[C@@]23CCCN2C[C@H](F)C3)nc2c(F)c(-c3ccc(F)c4sc(N)c(C#N)c34)c(C(F)(F)F)cc12)[C@@H]1C[C@@H](C)N(C(=O)OC)C1 (atropisomer, axis not shown) , what is its reported pIC50?
Solution: 6.00 to 7.00

Exercise: Same again, this time with N#Cc1c(N)sc2c(F)ccc(-c3c(C(F)(F)F)cc4c(N5C[C@@H]6[C@H]5CCN6C(=O)C5CC5)nc(OC[C@@]56CCCN5C[C@H](F)C6)nc4c3F)c12
Solution: 5.00 to 6.00

Exercise: One more molecule: CCN(c1nc(OC[C@@]23CCCN2C[C@H](F)C3)nc2c(F)c(-c3ccc(F)c4sc(N)c(C#N)c34)c(C(F)(F)F)cc12)[C@H]1C[C@H](C)N(C(=O)C2COC2)C1 (atropisomer, axis not shown)
Solution: > 7.00

Exercise: Also need N#Cc1c(N)sc2c(F)ccc(-c3c(C(F)(F)F)cc4c(N5CCn6cnnc6C5)nc(OC[C@@]56CCCN5C[C@H](F)C6)nc4c3F)c12 , thanks.
Solution: 6.00 to 7.00

Exercise: Try this molecule next: CCN(c1nc(OC[C@@]23CCCN2C[C@H](F)C3)nc2c(F)c(-c3ccc(F)c4sc(N)c(C#N)c34)c(C(F)(F)F)cc12)[C@H]1CCN(C(=O)C2CC(F)(F)C2)C1 (atropisomer, axis not shown)
Solution: > 7.00

###

# TARGET OR SYSTEM: Avi-KRAS G12R (1-169) GppNHp/RAF1 RBD-3xFLAG (52-151) (Homo sapiens, UniProt P01116, G12R)
# Construct: Avi-KRAS G12R (1-169)
# ASSAY TEXT: Raf1-KRAS G12R-GppNHP disruption HTRF assay (Biological Example 1)
# Format: binding
# EXPERIMENTAL CONDITIONS: KRAS G12R-GppNHp/RAF1 RBD HTRF
Exercise: for every item that follows, state its recorded IC50.

Exercise: Item C[C@]1(CO)CCN1c1nc(OC[C@@]23CCCN2C[C@H](F)C3)nc2c(F)c(-c3ccc(F)c4sc(N)c(C#N)c34)c(C(F)(F)F)cc12 with Avi-KRAS G12R (1-169) GppNHp/RAF1 RBD-3xFLAG (52-151) (Homo sapiens, UniProt P01116, G12R) - IC50?
Solution: 1000 to 10000 nM

Exercise: Follow-up item: CCN(c1nc(OC[C@@]23CCCN2C[C@H](F)C3)nc2c(F)c(-c3ccc(F)c4sc(N)c(C#N)c34)c(C(F)(F)F)cc12)[C@H]1C[C@@H](C)N(C(C)=O)C1
Solution: 100 to 1000 nM

Exercise: What do you get for N#Cc1c(N)sc2c(F)ccc(-c3c(C(F)(F)F)cc4c(N5CCN6C(=O)OCC6C5)nc(OCC56CCCN5CC(F)C6)nc4c3F)c12 (stereo not drawn) [Compound 428] ?
Solution: 1000 to 10000 nM

Exercise: Next up: C[C@@H]1[C@H](N(C)c2nc(OC[C@@]34CCCN3C[C@H](F)C4)nc3c(F)c(-c4ccc(F)c5sc(N)c(C#N)c45)c(C(F)(F)F)cc23)CCN1C(=O)C1CC1 (atropisomer, axis not shown) [Compound 334]
Solution: > 10000 nM

Exercise: Another compound to look at: N#Cc1c(N)sc2c(F)ccc(-c3c(C(F)(F)F)cc4c(N5CCC[C@H](CO)C5)nc(OC[C@@]56CCCN5C[C@H](F)C6)nc4c3F)c12
Solution: 100 to 1000 nM

Exercise: Could you do the same for N#Cc1c(N)sc2c(F)ccc(-c3c(C(F)(F)F)cc4c(N5CCCN6C(=O)CCC6C5)nc(OCC56CCCN5CC(F)C6)nc4c3F)c12 (stereo not drawn) , please?
Solution: 1000 to 10000 nM

Exercise: Another compound to check: CN(C)C(=O)c1cnn2c1CN(c1nc(OC[C@@]34CCCN3C[C@H](F)C4)nc3c(F)c(-c4ccc(F)c5sc(N)c(C#N)c45)c(C(F)(F)F)cc13)CC2
Solution: 1000 to 10000 nM

Exercise: Another compound to check: C[C@@H]1[C@H](N(C)c2nc(OC[C@@]34CCCN3C[C@H](F)C4)nc3c(F)c(-c4ccc(F)c5sc(N)c(C#N)c45)c(C(F)(F)F)cc23)CCN1C(=O)C1(C)CC1
Solution: 100 to 1000 nM

Exercise: Likewise for CN1CC[C@H](N(C)c2nc(OC[C@@]34CCCN3C[C@H](F)C4)nc3c(F)c(-c4ccc(F)c5sc(N)c(C#N)c45)c(C(F)(F)F)cc23)CC1=O ?
Solution: 100 to 1000 nM

Exercise: // next record CCN(c1nc(OC[C@@]23CCCN2C[C@H](F)C3)nc2c(F)c(-c3ccc(F)c4sc(N)c(C#N)c34)c(C(F)(F)F)cc12)[C@H]1CCS(=O)(=O)C1 (atropisomer, axis not shown) [Compound 492]
Solution: < 100 nM

Exercise: Let us now turn to CC(=O)N1C[C@@H](N(C)c2nc(OC[C@@]34CCCN3C[C@H](F)C4)nc3c(F)c(-c4ccc(F)c5sc(N)c(C#N)c45)c(C(F)(F)F)cc23)C[C@@H]1CF
Solution: 100 to 1000 nM

Exercise: Same read-out for CN(C)C(=O)c1nc2c(s1)CCN(c1nc(OCC34CCCN3CC(F)C4)nc3c(F)c(-c4ccc(F)c5sc(N)c(C#N)c45)c(C(F)(F)F)cc13)C2 (stereo not drawn) ?
Solution: > 10000 nM

Exercise: Same read-out for N#Cc1c(N)sc2c(F)ccc(-c3c(C(F)(F)F)cc4c(N5C6CC5CS(=O)(=O)C6)nc(OC[C@@]56CCCN5C[C@H](F)C6)nc4c3F)c12 ?
Solution: 100 to 1000 nM

Exercise: Now give it for CCN(c1nc(OC[C@@]23CCCN2C[C@H](F)C3)nc2c(F)c(-c3ccc(F)c4sc(N)c(C#N)c34)c(C(F)(F)F)cc12)[C@@H]1CCN(C(=O)C2CC2)[C@@H]1C (atropisomer, axis not shown) [Compound 524] too.
Solution: < 100 nM

Exercise: And what about the compound C[C@@H]1[C@H](N(C)c2nc(OC[C@@]34CCCN3C[C@H](F)C4)nc3c(F)c(-c4ccc(F)c5sc(N)c(C#N)c45)c(C(F)(F)F)cc23)CCN1C(=O)C(C)(C)C ?
Solution: 100 to 1000 nM

Exercise: Next record, please: N#Cc1c(N)sc2c(F)ccc(-c3c(C(F)(F)F)cc4c(N5CC6CC(C5)O6)nc(OC[C@@]56CCCN5C[C@]5(CC5(F)F)C6)nc4c3F)c12
Solution: 100 to 1000 nM

Exercise: Likewise for CCN(c1nc(OC[C@@]23CCCN2C[C@H](F)C3)nc2c(F)c(-c3ccc(F)c4sc(N)c(C#N)c34)c(C(F)(F)F)cc12)[C@@H]1CCN(C(C)=O)[C@H]1C ?
Solution: 100 to 1000 nM

Exercise: Consider next the compound CCC(=O)N1C[C@@H](N(C)c2nc(OC[C@@]34CCCN3C[C@H](F)C4)nc3c(F)c(-c4ccc(F)c5sc(N)c(C#N)c45)c(C(F)(F)F)cc23)C[C@@H]1C in the same way.
Solution: 100 to 1000 nM

Exercise: Now give it for CCC(=O)N1CC[C@@H](N(CC)c2nc(OC[C@@]34CCCN3C[C@H](F)C4)nc3c(F)c(-c4ccc(F)c5sc(N)c(C#N)c45)c(C(F)(F)F)cc23)[C@H]1C [Compound 405] too.
Solution: 100 to 1000 nM

Exercise: Moving on to the next compound: C[C@@]1(CO)CCN1c1nc(OC[C@@]23CCCN2C[C@H](F)C3)nc2c(F)c(-c3ccc(F)c4sc(N)c(C#N)c34)c(C(F)(F)F)cc12
Solution: > 10000 nM

Exercise: Next up: CC(=O)N1CCC(N(C)c2nc(OC[C@@]34CCCN3C[C@H](F)C4)nc3c(F)c(-c4ccc(F)c5sc(N)c(C#N)c45)c(C(F)(F)F)cc23)CC1
Solution: 100 to 1000 nM
